Provenance of the data: the supplement of paper PMC8007513

In this section we review reported growth yield values for a set of molecules.
System: Trichoderma virens ATCC 9645
Experiment: growth yield (OD600) with compound + IPBC relative to untreated control; higher = less growth inhibition
Conditions: compound concentration: 100 uM; IPBC concentration: 200 ng/ml; 72 h
Structures can show the parent of a compound that is named as a salt. The campaign covered roughly 1,300 compounds. About 130 (10%) showed an effect of 50% or more. The entries come from a sample that favours strong results as a whole.
Test readout: growth yield (%)

molecule="CNCC(O)c1ccc(OC(=O)C(C)(C)C)c(OC(=O)C(C)(C)C)c1 (stereo not drawn) [Dipivefrin hydrochloride] + CCCCNC(=O)OCC#CI [3-iodo-2-propynyl butylcarbamate (IPBC)]" measured_target="Trichoderma virens ATCC 9645" test_readout="growth yield" result_value=88.8
molecule="NC(=O)NC1NC(=O)NC1=O (stereo not drawn) [Allantoin] + CCCCNC(=O)OCC#CI [3-iodo-2-propynyl butylcarbamate (IPBC)]" measured_target="Trichoderma virens ATCC 9645" test_readout="growth yield" result_value=89.2
molecule="O=c1[nH]c2ccccc2n1C1CCN(CCCC(c2ccc(F)cc2)c2ccc(F)cc2)CC1 [Pimozide] + CCCCNC(=O)OCC#CI [3-iodo-2-propynyl butylcarbamate (IPBC)]" measured_target="Trichoderma virens ATCC 9645" test_readout="growth yield" result_value=136
molecule="Cc1cccc(Nc2ccncc2S(=O)(=O)NC(=O)NC(C)C)c1 [Torsemide] + CCCCNC(=O)OCC#CI [3-iodo-2-propynyl butylcarbamate (IPBC)]" measured_target="Trichoderma virens ATCC 9645" test_readout="growth yield" result_value=114
molecule="Nc1cc(-c2ccncc2)c[nH]c1=O [Amrinone] + CCCCNC(=O)OCC#CI [3-iodo-2-propynyl butylcarbamate (IPBC)]" measured_target="Trichoderma virens ATCC 9645" test_readout="growth yield" result_value=41.3
molecule="Cc1ncc(CO)c(CO)c1O [Pyridoxine hydrochloride] + CCCCNC(=O)OCC#CI [3-iodo-2-propynyl butylcarbamate (IPBC)]" measured_target="Trichoderma virens ATCC 9645" test_readout="growth yield" result_value=85.7
molecule="COc1cccc(N(C)C(=S)Oc2ccc3c(c2)CCCC3)n1 [Liranaftate] + CCCCNC(=O)OCC#CI [3-iodo-2-propynyl butylcarbamate (IPBC)]" measured_target="Trichoderma virens ATCC 9645" test_readout="growth yield" result_value=0
molecule="O=C(O)CCC(=O)c1ccc(-c2ccccc2)cc1 [Fenbufen] + CCCCNC(=O)OCC#CI [3-iodo-2-propynyl butylcarbamate (IPBC)]" measured_target="Trichoderma virens ATCC 9645" test_readout="growth yield" result_value=92.2

---

Tested on: Trichoderma virens ATCC 9645
Assay: growth yield (OD600) with compound + IPBC relative to untreated control; higher = less growth inhibition
Details: compound concentration: 100 uM; IPBC concentration: 200 ng/ml; 72 h
Structures can show the parent of a compound that is named as a salt. The whole screen tested about 1,300 compounds, of which about 130 (10%) showed an effect of 50% or more. What follows is part of a selection rich in strong results, with near analogues and random picks from the rest.
Test readout: growth yield (%)

molecule="COc1cccc(OC)c1C(=O)N[C@@H]1C(=O)N2[C@@H]1SC(C)(C)[C@@H]2C(=O)O [Methicillin sodium] + CCCCNC(=O)OCC#CI [3-iodo-2-propynyl butylcarbamate (IPBC)]" measured_target="Trichoderma virens ATCC 9645" unit_text=% result_value=90.7
molecule="CC(C)(C)NC[C@H](O)COc1ccccc1C1CCCC1 [Penbutolol sulfate] + CCCCNC(=O)OCC#CI [3-iodo-2-propynyl butylcarbamate (IPBC)]" measured_target="Trichoderma virens ATCC 9645" unit_text=% result_value=91.6
molecule="N=C(N)NC(=O)Cc1c(Cl)cccc1Cl [Guanfacine hydrochloride] + CCCCNC(=O)OCC#CI [3-iodo-2-propynyl butylcarbamate (IPBC)]" measured_target="Trichoderma virens ATCC 9645" unit_text=% result_value=90.7
molecule="c1ccc2c(CC3=NCCN3)cccc2c1 [Naphazoline hydrochloride] + CCCCNC(=O)OCC#CI [3-iodo-2-propynyl butylcarbamate (IPBC)]" measured_target="Trichoderma virens ATCC 9645" unit_text=% result_value=91.9
molecule="CC(C)C[C@H](CN)CC(=O)O [Pregabalin] + CCCCNC(=O)OCC#CI [3-iodo-2-propynyl butylcarbamate (IPBC)]" measured_target="Trichoderma virens ATCC 9645" unit_text=% result_value=89.1

---

System: Trichoderma virens ATCC 9645
Test: growth yield (OD600) with compound + IPBC relative to untreated control; higher = less growth inhibition
Details: compound concentration: 100 uM; IPBC concentration: 200 ng/ml; 40 h
Hit rate of the full screen: of about 1,300 compounds, about 130 (10%) showed an effect of 50% or more. This is one part of a sample in which strong results are shown more often than they occur.
Test readout: growth yield (%)

compound="NCc1ccccc1CC(=O)N[C@@H]1C(=O)N2C(C(=O)O)=C(CSc3nnnn3CC(=O)O)CS[C@H]12 [Ceforanide] + CCCCNC(=O)OCC#CI [3-iodo-2-propynyl butylcarbamate (IPBC)]" measured_target="Trichoderma virens ATCC 9645" result_value=92.3
compound="NS(=O)(=O)c1cc2c(cc1Cl)N=C(CSCc1ccccc1)NS2(=O)=O [Benzthiazide] + CCCCNC(=O)OCC#CI [3-iodo-2-propynyl butylcarbamate (IPBC)]" measured_target="Trichoderma virens ATCC 9645" result_value=89.9
compound="COC(c1ccccc1)(c1ccccc1)[C@H](Oc1nc(C)cc(C)n1)C(=O)O [Ambrisentan] + CCCCNC(=O)OCC#CI [3-iodo-2-propynyl butylcarbamate (IPBC)]" measured_target="Trichoderma virens ATCC 9645" result_value=89.3
compound="Cc1ccc(-c2ncc(Cl)cc2-c2ccc(S(C)(=O)=O)cc2)cn1 [Etoricoxib] + CCCCNC(=O)OCC#CI [3-iodo-2-propynyl butylcarbamate (IPBC)]" measured_target="Trichoderma virens ATCC 9645" result_value=88.8
